Each item that follows carries a reported Turf Quality.
Test system: “Penncross” creeping bentgrass Agrostis stolonifera L.
Test protocol: Field test of spray treatments on a creeping bentgrass putting green: turf quality / phytotoxicity rating
Type: in vivo
Experimental setup: 17 Aug; scale 1-10: 10=best turf, no phytotoxicity; 6=lowest acceptable; 1=completely brown turf
Give only the figure.

Consider the reported Turf Quality for these compounds:
INSERT INTO measurements (compound, property_measured, quantitative_readout) VALUES
  ('Cc1nn(-c2cc(CC(Cl)C(=O)O)c(Cl)cc2F)c(=O)n1C(F)F (stereo not drawn) [Treatment E13, Carfentrazone]', 'Turf Quality', 9.6),
  ('Cc1nn(-c2cc(CC(Cl)C(=O)O)c(Cl)cc2F)c(=O)n1C(F)F (stereo not drawn) [ES13, Carfentrazone]', 'Turf Quality', 10.0),
  ('Cc1nn(-c2cc(CC(Cl)C(=O)O)c(Cl)cc2F)c(=O)n1C(F)F (stereo not drawn) [ES11, Carfentrazone]', 'Turf Quality', 10.0),
  ('Cc1nn(-c2cc(CC(Cl)C(=O)O)c(Cl)cc2F)c(=O)n1C(F)F (stereo not drawn) [ES16, Carfentrazone]', 'Turf Quality', 10.0),
  ('Cc1nn(-c2cc(CC(Cl)C(=O)O)c(Cl)cc2F)c(=O)n1C(F)F (stereo not drawn) [Treatment E11, Carfentrazone]', 'Turf Quality', 10.0);

Now look at this one.
Ask: Record request: Turf Quality value, item Cc1nn(-c2cc(CC(Cl)C(=O)O)c(Cl)cc2F)c(=O)n1C(F)F (stereo not drawn) [Treatment E16, Carfentrazone]
Reply: 10.0

---

System: silvery thread moss
Test protocol: Field test of spray treatments on silvery thread moss in a creeping bentgrass putting green: percent moss cover
Assay type: in vivo, Bryum argenteum
Experimental setup: 17 Aug
Threshold check on % Moss Cover: at or above 60% gives class 1, strictly below gives class 0.

Answered examples (4):
INSERT INTO measurements (compound, group_label) VALUES
  ('Cc1nn(-c2cc(CC(Cl)C(=O)O)c(Cl)cc2F)c(=O)n1C(F)F (stereo not drawn) [Treatment E13, Carfentrazone]', 'class 1'),
  ('Cc1nn(-c2cc(CC(Cl)C(=O)O)c(Cl)cc2F)c(=O)n1C(F)F (stereo not drawn) [ES11, Carfentrazone]', 'class 1'),
  ('Cc1nn(-c2cc(CC(Cl)C(=O)O)c(Cl)cc2F)c(=O)n1C(F)F (stereo not drawn) [Treatment E16, Carfentrazone]', 'class 0'),
  ('Cc1nn(-c2cc(CC(Cl)C(=O)O)c(Cl)cc2F)c(=O)n1C(F)F (stereo not drawn) [ES16, Carfentrazone]', 'class 0');

Ask: Decide: % Moss Cover of Cc1nn(-c2cc(CC(Cl)C(=O)O)c(Cl)cc2F)c(=O)n1C(F)F (stereo not drawn) [ES13, Carfentrazone] >= 60%?
Reply: class 1
